test: Clearance in dog at 1 mg/kg, iv; assay type: ADME, organism-based, Canis lupus familiaris; settings: in vivo
observable: clearance (mL/min/kg)
Number only, in mL/min/kg; omit the unit.

Prompt: Query (compound): CCC[C@H]1N(C(=O)c2cnccc2C(F)(F)F)CCC[C@@]1(Oc1csc(C(F)(F)F)c1)C(=O)N1CCN(c2ccccc2OCCCC(=O)O)CC1 ; field requested: clearance
Completion: 4.1
